target: rat PDE4 (Rolipram); assay: rat Rolipram radioligand binding; parameters: species or system Wistar rat; settings: read-out: rat Rolipram Ki; Wistar rat brain, 1.8 nM [3H] rolipram, 1% DMSO, 60 min at 4 °C, 50 mM Tris-HCl, pH 7.4
pKi: −log10 of the molar value.

Compound string | Relation qualifier | pKi
Nc1ncnc2c1ncn2Cc1nc2ccccc2c2cc[nH]c12 | = | 5.92
Cc1nc2ccccc2c2cc[nH]c12 | < | 4.00
